Biological target: T1, mouse tenascin-C rCd4-His-FBG (rat; mouse, UniProt P05540 207-392, limits assumed)
T1 construct: domain: domains 3 and 4; C-terminal FBG fusion; biotinylated in the ELISA screen; also called Mu TNC; mouse TNC rCd4-His-FBG; not shown: 6His tag
T1 sequence (chain (part 1 of 2)): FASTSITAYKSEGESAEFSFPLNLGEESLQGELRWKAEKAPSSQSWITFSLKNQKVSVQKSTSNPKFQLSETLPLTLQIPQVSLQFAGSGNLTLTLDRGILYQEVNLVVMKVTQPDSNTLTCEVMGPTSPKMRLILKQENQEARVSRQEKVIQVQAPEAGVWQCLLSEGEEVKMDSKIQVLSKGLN
T1 sequence (chain (part 2 of 2)): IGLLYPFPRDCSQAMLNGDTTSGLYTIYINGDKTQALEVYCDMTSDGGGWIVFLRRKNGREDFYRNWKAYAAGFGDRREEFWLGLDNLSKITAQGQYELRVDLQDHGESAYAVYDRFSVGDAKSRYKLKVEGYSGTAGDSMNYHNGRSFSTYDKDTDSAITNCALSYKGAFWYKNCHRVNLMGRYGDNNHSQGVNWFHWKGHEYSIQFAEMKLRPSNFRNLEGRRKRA
Experiment: SPR off-rate screen, captured IgG4 supernatant, 25 C
So basically: koff at 0.0003 s⁻¹ or higher? That is Condition met. Lower than 0.0003 s⁻¹? That is Condition not met.

Qu. hey, is koff for this one >= 0.0003 s⁻¹? 161_01_A12 human IgG4 (antibody, V domains shown, human IgG4 with hinge S241P; also called Antibody 161 01 A12 (derived from 2A5)) VH: EVRLVQSGAEVKKPGASVKVSCKVSGYTLTELSMHWVRQAPGKGLEWMGGFDPEDGETIYAQKFQGRVTMTEDTSTDTAYMELSSLRSEDTAVYYCATAQPTALANTYWGQGTLVTVSS VL: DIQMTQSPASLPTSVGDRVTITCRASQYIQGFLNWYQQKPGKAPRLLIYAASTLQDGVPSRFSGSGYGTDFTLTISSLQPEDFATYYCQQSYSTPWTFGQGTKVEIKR
Ans. Condition not met

Qu. Please check the record 162_02_F3 human IgG4 (antibody, V domains shown, human IgG4 with hinge S241P; also called Antibody 162 02 F3 (derived from 2A5)) VH: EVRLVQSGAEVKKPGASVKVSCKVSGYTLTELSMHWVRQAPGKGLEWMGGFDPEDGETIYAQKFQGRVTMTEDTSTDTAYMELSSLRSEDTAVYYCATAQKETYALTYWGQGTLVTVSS VL: DIQMTQSPASLPTSVGDRVTITCRASQYIQGFLNWYQQKPGKAPRLLIYAASTLQDGVPSRFSGSGYGTDFTLTISSLQPEDFATYYCQNQYRGPWTFGQGTKVEIKR and state if its koff is at or above 0.0003 s⁻¹.
Ans. Condition met

Qu. Dear colleague, could you confirm whether 162_02_C6 human IgG4 (antibody, V domains shown, human IgG4 with hinge S241P; also called Antibody 162 02 C6 (derived from 2A5)) VH: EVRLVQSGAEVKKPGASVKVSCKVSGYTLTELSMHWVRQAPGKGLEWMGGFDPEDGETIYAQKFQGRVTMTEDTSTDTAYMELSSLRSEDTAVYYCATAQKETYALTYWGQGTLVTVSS VL: DIQMTQSPASLPTSVGDRVTITCRASQYIQGFLNWYQQKPGKAPRLLIYAASTLQDGVPSRFSGSGYGTDFTLTISSLQPEDFATYYCQNQYAGPWTFGQGTKVEIKR has koff at or above 0.0003 s⁻¹?
Ans. Condition not met

Qu. Threshold query (koff >= 0.0003 s⁻¹) on 165_13_D4 human IgG4 (antibody, V domains shown, human IgG4 with hinge S241P) VH: QVQLVESGGGLVQPGRSLRLSCAASGFTFDDYAMHWVRQAPGKGLEWVSGISGSGGSTYYADSVKGRFTISRDNAKNSLYLQMNSLRAEDTALYYCAKGTVGEGDTFDIWGQGTMVTVSS VL: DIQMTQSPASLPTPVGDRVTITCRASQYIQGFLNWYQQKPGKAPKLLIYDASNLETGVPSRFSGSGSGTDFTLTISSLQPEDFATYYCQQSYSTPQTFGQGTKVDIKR
Ans. Condition not met

Qu. Can 165_13_B3 human IgG4 (antibody, V domains shown, human IgG4 with hinge S241P) VH: QVQLVESGGGLVQPGRSLRLSCAASGFTFDDYAMHWVRQAPGKGLEWVSGISGSGGSTYYADSVKGRFTISRDNAKNSLYLQMNSLRAEDTALYYCAKALARGHDTFDIWGQGTMVTVSS VL: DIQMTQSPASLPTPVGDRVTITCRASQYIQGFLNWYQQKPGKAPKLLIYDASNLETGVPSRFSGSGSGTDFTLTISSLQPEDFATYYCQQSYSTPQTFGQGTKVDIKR be said to have koff at or above 0.0003 s⁻¹?
Ans. Condition met
